IC50 overview
molecular target: GSK3b (GST-full length GSK3b) (Homo sapiens (Human)); assay: GSK3b TR-FRET kinase assay; type: biochemical; conditions: 1 nM GSK3b, 2 μM ATP, 30 minute preincubation, Table 16; read-out: GSK3-B TR-FRET BIOCHEMICAL (TR-FRET); IC50
Sequence (P49841 whole entry): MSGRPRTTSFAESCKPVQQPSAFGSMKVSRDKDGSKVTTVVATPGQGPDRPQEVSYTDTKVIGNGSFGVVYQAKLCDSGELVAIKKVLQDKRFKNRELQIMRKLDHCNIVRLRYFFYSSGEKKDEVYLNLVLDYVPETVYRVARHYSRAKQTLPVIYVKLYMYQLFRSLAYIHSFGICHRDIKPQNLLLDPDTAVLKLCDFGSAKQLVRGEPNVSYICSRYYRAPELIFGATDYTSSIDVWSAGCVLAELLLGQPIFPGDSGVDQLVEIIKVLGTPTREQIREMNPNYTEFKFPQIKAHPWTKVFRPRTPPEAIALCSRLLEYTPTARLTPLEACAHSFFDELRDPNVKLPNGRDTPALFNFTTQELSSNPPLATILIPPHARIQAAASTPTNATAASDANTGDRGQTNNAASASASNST

Observe how each entry below is paired with its result.
{"compound": "CC1(C)CC(=O)C2=C(C1)Nc1n[nH]cc1C21CNC1 [Compound 912075]", "observed.result": "> 5 µM"}
{"compound": "CC1(C)CC(=O)C2=C(C1)Nc1n[nH]cc1C21CN(Cc2cnc3ccccn23)C1 [Compound 932654]", "observed.result": "> 5 µM"}
{"compound": "CCC1(c2cccc(-c3ccn(C)n3)c2)C2=C(CC(C)(C)CC2=O)Nc2n[nH]c(C)c21 (stereo not shown) [Compound 883999]", "observed.result": "≤ 0.1 µM"}

State the recorded IC50 for this entry: CCC1(c2cccc(Oc3ncccn3)c2)C2=C(CC(C)(C)NC2=O)Nc2n[nH]c(C(F)(F)F)c21 (stereo not shown) [Compound 950323] ≤ 0.1 µM

* * *

biological target: GSK3α (GST-full length GSK3α) (Homo sapiens (Human), UniProt P49840); test: GSK3α TR-FRET kinase assay; type: biochemical; conditions: 1 nM GSK3α, 4 μM ATP, 30 minute preincubation, Table 16; read-out: GSK3-A TR-FRET BIOCHEMICAL (TR-FRET); IC50
Sequence (P49840 whole entry): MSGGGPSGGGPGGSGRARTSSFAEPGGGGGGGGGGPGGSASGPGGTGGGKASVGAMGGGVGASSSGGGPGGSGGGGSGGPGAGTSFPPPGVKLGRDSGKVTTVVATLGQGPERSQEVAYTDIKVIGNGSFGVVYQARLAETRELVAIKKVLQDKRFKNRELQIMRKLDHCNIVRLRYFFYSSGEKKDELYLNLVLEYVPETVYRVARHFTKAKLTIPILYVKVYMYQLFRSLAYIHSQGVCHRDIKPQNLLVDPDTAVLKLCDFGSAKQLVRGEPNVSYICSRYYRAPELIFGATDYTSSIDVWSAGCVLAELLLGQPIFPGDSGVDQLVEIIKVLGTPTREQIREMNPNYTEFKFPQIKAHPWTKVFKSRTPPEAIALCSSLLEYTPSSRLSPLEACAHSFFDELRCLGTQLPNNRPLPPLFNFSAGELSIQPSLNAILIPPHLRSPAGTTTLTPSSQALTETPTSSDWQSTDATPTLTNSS
pIC50: −log10 of the molar value.
measurement.name: pIC50

{"molecular.string": "CC[C@H]1C[C@@]2(CCO1)C1=C(CC(C)(C)CC1=O)Nc1n[nH]cc12", "measurement.name": "pIC50", "observed.result": "6.00 to 7.00"}
{"molecular.string": "CC[C@]1(c2cccc(-c3c(C#N)cnn3C)c2)C2=C(CC(C)(C)NC2=O)Nc2n[nH]c(C)c21", "measurement.name": "pIC50", "observed.result": "≥ 7.00"}

Missing value: pIC50, GSK3α (GST-full length GSK3α) (Homo sapiens (Human), UniProt P49840), entry CC1(C)CC(=O)C2=C(C1)Nc1n[nH]cc1[C@]21CCCc2ccccc21 . Fill in? ≥ 7.00

I'm curious: which pIC50 was measured for CC[C@]1(c2cccc(-c3ccnn3-c3ccc(F)cc3)c2)C2=C(CC(C)(C)NC2=O)Nc2n[nH]cc21 tested on GSK3α (GST-full length GSK3α) (Homo sapiens (Human), UniProt P49840)? 6.00 to 7.00

* * *

target: GSK3α (GST-full length GSK3α) (Homo sapiens (Human)); experiment: GSK3α TR-FRET kinase assay; type: biochemical; conditions: 1 nM GSK3α, 4 μM ATP, 30 minute preincubation, Table 16; read-out: GSK3-A TR-FRET BIOCHEMICAL (TR-FRET)
pIC50: −log10 of the molar value.
measurement.name: pIC50

{"compound": "CCC1(c2cccc(-c3ccnc(C)c3C)c2)C2=C(CC(C)(C)CC2=O)Nc2n[nH]cc21 (stereo not shown) [Compound 943516]", "pIC50": "≥ 7.00"}
{"compound": "CC(C)Oc1ccc(S(=O)(=O)N2CCC3(CC2)C2=C(CC(C)(C)CC2=O)Nc2n[nH]cc23)cn1", "pIC50": "≥ 7.00"}
{"compound": "CC1CCC12C1=C(CC(C)(C)CC1=O)Nc1n[nH]cc12 (stereo not shown)", "pIC50": "6.00 to 7.00"}
{"compound": "CC1(C)CC(=O)C2=C(C1)Nc1n[nH]cc1C21CN(S(=O)(=O)c2ccccn2)C1", "pIC50": "≥ 7.00"}
{"compound": "CC[C@]1(c2cccc(-c3cncn3C)c2)C2=C(CC(C)(C)CC2=O)Nc2n[nH]cc21", "pIC50": "≥ 7.00"}

Test system GSK3α (GST-full length GSK3α) (Homo sapiens (Human)); read-out pIC50; what value for CC1(C)CC(=O)C2=C(C1)Nc1n[nH]cc1C21CCN(S(C)(=O)=O)C1 (stereo not shown) ? ≥ 7.00

So what pIC50 did Cc1cc(S(=O)(=O)N2CCC3(CC2)C2=C(CC(C)(C)CC2=O)Nc2n[nH]cc23)ccc1OC(C)C get with GSK3α (GST-full length GSK3α) (Homo sapiens (Human))? ≥ 7.00

GET /values?readout=pIC50&system=GSK3α (GST-full length GSK3α) (Homo sapiens (Human))&item= CC1(C)CC(=O)C2=C(C1)Nc1n[nH]cc1C21CCN(S(=O)(=O)c2cnn3ccccc23)CC1 ≥ 7.00

Requested read-out pIC50, target or system GSK3α (GST-full length GSK3α) (Homo sapiens (Human)), entry CC1(C)CC(=O)C2=C(C1)Nc1n[nH]cc1C21CCN(S(=O)(=O)c2cn3c(n2)CCCC3)CC1 ≥ 7.00

Quick check: pIC50 on GSK3α (GST-full length GSK3α) (Homo sapiens (Human)), item O=C1C[C@]2(CCOC2)CC2=C1C1(CCOCC1)c1c[nH]nc1N2 ? 6.00 to 7.00

Notebook: pull reported pIC50 for GSK3α (GST-full length GSK3α) (Homo sapiens (Human)), entry CCC1(c2cccc(C(F)F)c2)C2=C(CC(C)(C)CC2=O)Nc2n[nH]c(C(F)(F)F)c21 (stereo not shown) ≥ 7.00

Find pIC50 (GSK3α (GST-full length GSK3α) (Homo sapiens (Human))) for the entry COC(=O)C1(c2ccccc2)CC2(C1)C1=C(CC(C)(C)CC1=O)Nc1n[nH]cc12 (stereo not shown) [Compound 942344] ≥ 7.00

GET /values?readout=pIC50&system=GSK3α (GST-full length GSK3α) (Homo sapiens (Human))&item= CC[C@]1(c2ccccc2)C2=C(C[C@]3(CCNC3=O)CC2=O)Nc2n[nH]cc21 < 5.30

Form field: pIC50 recorded for CC1(C)CC(=O)C2=C(Nc3n[nH]cc3C23CCOCC3)[C@H]1F with GSK3α (GST-full length GSK3α) (Homo sapiens (Human)) (enter value) 6.00 to 7.00

What is its pIC50 for GSK3α (GST-full length GSK3α) (Homo sapiens (Human))? Entry: O=C1C2=C(Nc3n[nH]cc3C23CCOCC3)[C@H]2CC[C@@H]1C2 6.00 to 7.00

Item CC[C@]1(c2cccc(-c3cc(C)nn3C)c2)C2=C(Nc3n[nH]cc31)[C@H](F)C(C)(C)CC2=O with GSK3α (GST-full length GSK3α) (Homo sapiens (Human)) - pIC50? 6.00 to 7.00

* * *

In this section we review reported IC50 values for a set of compounds.
biological target: GSK3α (GST-full length GSK3α) (Homo sapiens (Human), UniProt P49840); assay: GSK3α TR-FRET kinase assay; assay type: biochemical; settings: 1 nM GSK3α, 4 μM ATP, 30 minute preincubation, Table 16; read-out: GSK3-A TR-FRET BIOCHEMICAL (TR-FRET)

See these solved cases before continuing.
{"compound": "CC[C@]1(c2cccc(-c3ccnc(CCO)c3)c2)C2=C(CC(C)(C)CC2=O)Nc2n[nH]cc21", "IC50": "≤ 100 nM"}
{"compound": "CCC1(c2cccc(-c3cnnn3C)c2)C2=C(CC(C)(C)CC2=O)Nc2n[nH]cc21 (centres unmarked) [Compound 947802]", "IC50": "≤ 100 nM"}
{"compound": "CC[C@@]1(c2cccc(OC(C)C)c2)C2=C(CC(C)(C)CC2=O)Nc2n[nH]c(C(F)(F)F)c21", "IC50": "100 to 1000 nM"}
{"compound": "CC1(C)CC(=O)C2=C(C1)Nc1n[nH]cc1[C@]21CC[C@H](C(F)(F)F)C1", "IC50": "≤ 100 nM"}
{"compound": "CC1(C)CC(=O)C2=C(C1)Nc1n[nH]cc1[C@]21C[C@@H](OCc2ccccc2)C1", "IC50": "≤ 100 nM"}

Give the measured IC50 of Cc1nccc([C@H]2CC[C@]3(CC2)C2=C(CC(C)(C)CC2=O)Nc2n[nH]cc23)c1C . 100 to 1000 nM

Reported IC50, compound CCC1(c2cccc(-c3cc(C)nn3C)c2)C2=C(CC(C)(C)CC2=O)Nc2n[nH]c(C(F)(F)F)c21 (centres unmarked) : ____ ≤ 100 nM

// lookup IC50 for Cn1ccc(S(=O)(=O)N2CC3(C2)C2=C(CC(C)(C)CC2=O)Nc2n[nH]cc23)n1 ≤ 100 nM

Quick one: IC50 for C[C@@H]1CC[C@]2(C1)C1=C(CC(C)(C)CC1=O)Nc1n[nH]cc12 ? ≤ 100 nM

Which value of IC50 has been reported for CCC1(c2cccc(C(F)(F)F)c2)C2=C(Nc3n[nH]cc31)C(C)NC2=O (centres unmarked) in the records? 100 to 1000 nM

What value of IC50 has been recorded for this entry: CCC1(c2cccc(-c3ccnc(C)c3)c2)C2=C(Nc3n[nH]cc31)C(F)C(C)(C)CC2=O (centres unmarked) [Compound 946102] 1000 to 5000 nM

What does the data say about its IC50? Entry: CCC1(c2cccc(-c3cn(C)nc3C)c2)C2=C(Nc3n[nH]cc31)C(F)C(C)(C)CC2=O (single isomer, unassigned) [Compound 947650] ≤ 100 nM

IC50 lookup needed for CC1(C)CC(=O)C2=C(C1)Nc1n[nH]cc1[C@]21C[C@@H](n2cccn2)C1 , thanks. ≤ 100 nM

For the compound shown here, CCC1(c2cccc(-c3cncn3C(C)C)c2)C2=C(Nc3n[nH]cc31)C(F)C(C)(C)CC2=O (centres unmarked) , give the reported IC50. ≤ 100 nM

Which IC50 is reported for this compound? CC1(C)CC(=O)C2=C(C1)Nc1n[nH]cc1C21CCS(=O)(=O)CC1 100 to 1000 nM

Please look up its IC50: Cn1cc(S(=O)(=O)N2CC[C@@]3(C2)C2=C(CC(C)(C)CC2=O)Nc2n[nH]cc23)cn1 ≤ 100 nM

Field request: IC50 | item: CC[C@@]1(c2cccc(C(F)(F)F)c2)C2=C(Nc3n[nH]cc31)C(C)(C)NC2=O ≤ 100 nM

Recorded IC50 of Cn1cc([C@H]2CC[C@@]3(CC2)C2=C(CC(C)(C)CC2=O)Nc2n[nH]cc23)cn1 , please. 100 to 1000 nM

State the recorded IC50 for this entry: CCC1(c2cccc(-c3cncn3C)c2)C2=C(CC(C)(C)CC2=O)Nc2n[nH]cc21 (centres unmarked) [Compound 945620] 100 to 1000 nM

Given CC1(C)CC(=O)C2=C(C1)Nc1n[nH]cc1C21CCN(S(=O)(=O)c2ccc(Cl)c(Cl)c2)CC1 , state its recorded IC50. ≤ 100 nM

Would you mind telling me what IC50 value was observed for CCC1(c2cccc(-c3ccnc(C)c3C)c2)C2=C(CC(C)(C)CC2=O)Nc2n[nH]c(C(F)(F)F)c21 (centres unmarked) [Compound 947329] ? ≤ 100 nM

Please report the recorded IC50 for CC1(C)CC(=O)C2=C(C1)Nc1n[nH]cc1[C@@]21CCN(S(=O)(=O)c2ccccc2F)C1 . ≤ 100 nM

All figures here come from patent US20250313563A1.
